assayRemarks: Cell viability (MTT) in the whole-cell kinetic study
Type: cell-based
conditionParameters: human, HaCaT cells, testosterone 0−50 µM, read-out: Cell viabilities
assayMetric: viability at 12 h

Field viability at 12 h (entry C[C@]12CC[C@H]3[C@@H](CCC4=CC(=O)CC[C@@]43C)[C@@H]1CC[C@@H]2O [Testosterone, reference compound] ) reads ~80%
